System: Canis familiaris
TEST NAME: Total time in minutes elapsed from the initiation of the change until return to the pretest value of blood pressure in coronary sinus of anesthetized dog at intravenous dosage of 10 mg/kg
Format: functional, Canis lupus familiaris
Label True for high-side Duration (at or above 1 min) and False for low-side Duration (below it).

1. Nc1ncnc2c1ncn2C1O[C@H](C(=O)N2CCOCC2)[C@@H](O)[C@H]1O (stereo partly specified) : False
2. Nc1ncnc2c1ncn2C1O[C@H](C(=O)Nc2ccc(F)cc2)[C@@H](O)[C@H]1O (stereo partly specified) : False
3. Cc1cccc(C)c1NC(=O)[C@H]1OC(n2cnc3c(N)ncnc32)[C@H](O)[C@@H]1O (stereo partly specified) : True
4. CCNC(=O)[C@H]1O[C@@H](n2cnc3c(N)ncnc32)[C@H]2OC(C)(C)OC12 (stereo partly specified) : False

Problem: Say whether COc1ccccc1N1CCN(C(=O)[C@H]2OC(n3cnc4c(N)ncnc43)[C@H](O)[C@@H]2O)CC1 (stereo partly specified) shows Duration of 1 min or more.
Solution: True

Problem: Hi team, for CCOC(=O)CNC(=O)[C@H]1OC(n2cnc3c(N)ncnc32)[C@H](O)[C@@H]1O (stereo partly specified) , is the recorded Duration at or above 1 min?
Solution: True

Problem: Is the recorded value of Duration equal to or greater than 1 min for this compound? CN(C)CCNC(=O)[C@H]1OC(n2cnc3c(N)ncnc32)[C@H](O)[C@@H]1O (stereo partly specified)
Solution: True

Problem: In plain terms: is recorded Duration at least 1 min for Nc1ncnc2c1ncn2C1O[C@H](C(=O)N2CCCCC2)[C@@H](O)[C@H]1O (stereo partly specified) ?
Solution: True

Problem: Say whether CCC(=O)c1ccccc1NC(=O)[C@H]1OC(n2cnc3c(N)ncnc32)[C@H](O)[C@@H]1O (stereo partly specified) shows Duration of 1 min or more.
Solution: True

Problem: In plain terms: is recorded Duration at least 1 min for CCN(CC)CCNC(=O)[C@H]1OC(n2cnc3c(N)ncnc32)[C@H](O)[C@@H]1O (stereo partly specified) ?
Solution: True
